Where do these numbers come from? They come from patent US20180171001A1.

Molecular target: Env of HIV-1 strain 231965.c1 (HIV-1)
Assay: cell-based or functional assay
recorded metric: neutralization IC50 (µg/mL)
Write down the numeric answer in µg/mL and omit the unit.

// query Using the record for γ22κ18 (antibody, V domains shown) VH: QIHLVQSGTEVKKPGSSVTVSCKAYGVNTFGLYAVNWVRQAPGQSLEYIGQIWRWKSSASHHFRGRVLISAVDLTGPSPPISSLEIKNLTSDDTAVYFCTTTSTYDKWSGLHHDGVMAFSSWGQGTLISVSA VL: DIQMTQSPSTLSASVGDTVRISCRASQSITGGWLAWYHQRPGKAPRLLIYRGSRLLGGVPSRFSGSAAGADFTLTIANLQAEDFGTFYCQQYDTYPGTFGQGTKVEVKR , report its neutralization IC50.
// result 26

// query Entry to check: γ15κ3 (antibody, V domains shown) VH: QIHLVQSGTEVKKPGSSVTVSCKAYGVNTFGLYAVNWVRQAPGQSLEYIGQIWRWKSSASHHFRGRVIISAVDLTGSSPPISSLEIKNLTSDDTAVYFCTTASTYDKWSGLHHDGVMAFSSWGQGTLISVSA VL: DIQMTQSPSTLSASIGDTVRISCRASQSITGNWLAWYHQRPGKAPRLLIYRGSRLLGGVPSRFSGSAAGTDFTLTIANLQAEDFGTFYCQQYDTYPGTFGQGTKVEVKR
// result 1.61
